- Tested on: human umbilical vein endothelial cells (HUVEC)
- assay_method_text: Peak NO release from HUVEC after acute treatment (porphyrinic probe)
- Type: cell-based
- condition_info: acute; concentration-response; FIG. 6
pEC50: −log10 of the molar value.
assay_readout: pEC50

| molecule | target_system | measurement |
| --- | --- | --- |
| OC1CC(C(O)CNCC(O)C2CCc3cc(F)ccc3O2)Oc2ccc(F)cc21 (stereo not shown) [4-hydroxy nebivolol] | human umbilical vein endothelial cells (HUVEC) | 6.30 |

###

- Tested on: HUVECs isolated from White and Black American donors
- assay_method_text: Acute NO release from endothelial cells of White and Black American donors (electrochemical nanosensors)
- Format: cell-based, human
- condition_info: acute drug treatment 1.0 μM; HUVECs from Black American donors; mean±S.D. (n=5)
Doc: threshold 200 nM (exclusive). Items with NO (nM), Black Donors, acute NO release beneath it return 1; others return -1.

| molecule | cat |
| --- | --- |
| O[C@H](CNC[C@@H](O)[C@H]1CCc2cc(F)ccc2O1)[C@@H]1CCc2cc(F)ccc2O1 [d-nebivolol, reference compound] | 1 |
| Oc1cc2c(cc1F)OC(C(O)CNCC(O)C1C[C@H](O)c3cc(F)ccc3O1)CC2 (stereo partly drawn) | -1 |
| Oc1cc2c(cc1F)OC(C(O)CNCC(O)C1C[C@@H](O)c3cc(F)ccc3O1)CC2 (stereo partly drawn) | -1 |
| Oc1ccc2c(c1F)CCC(C(O)CNCC(O)C1C[C@@H](O)c3cc(F)ccc3O1)O2 (stereo partly drawn) | -1 |
| Oc1ccc2c(c1F)CCC(C(O)CNCC(O)C1CCc3cc(F)ccc3O1)O2 (stereo not drawn) [5-fluoro-6-hydroxy-l-nebivolol] | -1 |
| O[C@@H](CNC[C@H](O)[C@H]1CCc2cc(F)ccc2O1)[C@@H]1CCc2cc(F)ccc2O1 [l-nebivolol, reference compound] | 1 |
| OC(CNCC(O)C1C[C@H](O)c2cc(F)ccc2O1)C1CCc2cc(F)ccc2O1 (stereo partly drawn) [4(S)-Hydroxy-l-nebivolol] | 1 |
| OC(CNCC(O)C1CCc2cc(F)ccc2O1)C1CCc2cc(F)ccc2O1 (racemic) | 1 |
